Biological target: soluble ectodomain of sortilin-6his (Homo sapiens, UniProt Q99523, V650M)
Construct: the soluble ectodomain of sortilin-6his is measured by microscale thermophoresis (MST)
Sequence (Q99523 with tags, fused parts or gaps V650M): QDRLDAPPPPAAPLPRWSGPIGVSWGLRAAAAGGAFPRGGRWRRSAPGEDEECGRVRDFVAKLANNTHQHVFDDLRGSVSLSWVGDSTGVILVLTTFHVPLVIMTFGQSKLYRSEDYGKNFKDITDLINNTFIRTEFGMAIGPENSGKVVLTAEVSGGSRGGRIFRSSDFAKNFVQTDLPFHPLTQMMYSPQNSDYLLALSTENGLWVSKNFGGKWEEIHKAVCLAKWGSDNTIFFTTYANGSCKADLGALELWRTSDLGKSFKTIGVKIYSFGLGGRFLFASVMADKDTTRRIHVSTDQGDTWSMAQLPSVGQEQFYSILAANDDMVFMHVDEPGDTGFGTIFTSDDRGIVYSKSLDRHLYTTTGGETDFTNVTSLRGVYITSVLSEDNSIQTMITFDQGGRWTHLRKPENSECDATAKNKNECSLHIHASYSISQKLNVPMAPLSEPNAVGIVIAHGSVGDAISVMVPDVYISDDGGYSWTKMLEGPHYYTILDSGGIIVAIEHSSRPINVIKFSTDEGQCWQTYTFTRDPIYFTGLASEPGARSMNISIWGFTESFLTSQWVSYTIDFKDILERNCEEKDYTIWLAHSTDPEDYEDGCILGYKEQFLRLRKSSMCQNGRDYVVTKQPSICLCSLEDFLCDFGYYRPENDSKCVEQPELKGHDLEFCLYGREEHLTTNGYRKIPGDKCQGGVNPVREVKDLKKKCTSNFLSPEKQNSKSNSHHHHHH
Test: MST binding to soluble ectodomain of sortilin-6his
Details: Table 4; small molecule bifunctional compounds; MST; read-out: KD score, binding to sortilin (Kd)
Known Kd of a selection of compounds

# count of solved cases: 2
INPUT_SMILES	TARGET_OR_TEST_SYSTEM	MEASURED_ENDPOINT	MEASURED_RESULT
C[C@@H]1CN(c2ncc(-c3ccc4c(n3)N(Cc3cccnc3C#N)C(C)(C)C4=O)cn2)CCN1C(=O)COCCNC(=O)COc1cccc(Oc2ccc(C(=O)N[C@@H](CCC(C)(C)C)C(=O)O)cn2)c1	soluble ectodomain of sortilin-6his (Homo sapiens, UniProt Q99523, V650M)	Kd	1 to 10 nM
C[C@@H]1CN(c2ncc(-c3ccc4c(n3)N(Cc3cccnc3C#N)C(C)(C)C4=O)cn2)CCN1C(=O)COCCCCCCNc1cccc(Oc2ccc(C(=O)N[C@@H](CCC(C)(C)C)C(=O)O)cn2)c1	soluble ectodomain of sortilin-6his (Homo sapiens, UniProt Q99523, V650M)	Kd	1 to 10 nM

The record that follows has no Kd shown yet.
Kd reported for this compound CC(C)(C)CC[C@H](NC(=O)c1ccc(Oc2cccc(C(=O)NCCOCCNc3ncc(-c4ccc5c(n4)N(Cc4cccnc4C#N)C(C)(C)C5=O)cn3)c2)nc1)C(=O)O : 1 to 10 nM
